All values here come from patent US20020103111A1.

What % Adhesion Inhibition was measured for each of the following?
target: human α4β7 integrin (human), P13612; experiment: inhibition of HUT 78 cell adhesion to murine MAdCAM-1/mCk at 500 µM
Ends that are not written are not given here.
One number for each entry, in %.

Below, 2 binders whose answers are already recorded.
binder	unit-descriptor	% Adhesion Inhibition
Ac-HWRGLDT (not fully specified (C-terminus); printed as Ac-His-Trp-Arg-Gly-Leu-Asp-Thr) [Ac-His-Trp-Arg-Gly-Leu-Asp-Thr]	%	49
Ac-GLDTS (not fully specified (C-terminus); printed as Ac-Gly-Leu-Asp-Thr-Ser) [Ac-Gly-Leu-Asp-Thr-Ser]	%	43

Would you be so kind as to report % Adhesion Inhibition for each listed record?
1. Ac-RGLDTSL (not fully specified (C-terminus); printed as Ac-Arg-Gly-Leu-Asp-Thr-Ser-Leu) [Ac-Arg-Gly-Leu-Asp-Thr-Ser-Leu]
2. Ac-RGLDT (not fully specified (C-terminus); printed as Ac-Arg-Gly-Leu-Asp-Thr) [Ac-Arg-Gly-Leu-Asp-Thr]
3. Ac-WRGLDTS (not fully specified (C-terminus); printed as Ac-Trp-Arg-Gly-Leu-Asp-Thr-Ser) [Ac-Trp-Arg-Gly-Leu-Asp-Thr-Ser]

Given back:
1: 35; 2: 48; 3: 44
